Let's go through some Ki measurements on Cannabinoid receptor 1 (Homo sapiens, UniProt P21554) together.
Sequence (P21554 whole entry): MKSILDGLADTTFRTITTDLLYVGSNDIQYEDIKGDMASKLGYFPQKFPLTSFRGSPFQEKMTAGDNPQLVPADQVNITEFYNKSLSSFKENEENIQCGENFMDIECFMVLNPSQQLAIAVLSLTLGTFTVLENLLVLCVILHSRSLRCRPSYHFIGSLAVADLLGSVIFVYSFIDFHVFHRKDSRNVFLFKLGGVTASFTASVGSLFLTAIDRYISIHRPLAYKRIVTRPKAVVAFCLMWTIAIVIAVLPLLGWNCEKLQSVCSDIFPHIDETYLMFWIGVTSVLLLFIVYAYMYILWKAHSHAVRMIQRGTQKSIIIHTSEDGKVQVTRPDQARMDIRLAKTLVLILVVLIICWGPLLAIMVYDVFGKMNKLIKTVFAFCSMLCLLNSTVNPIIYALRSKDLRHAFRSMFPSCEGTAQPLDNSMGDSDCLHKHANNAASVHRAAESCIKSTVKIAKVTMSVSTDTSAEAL
value_type: Ki (nM)

> print(dat)
                                   compound  value.type  unit.abbrev  data.value
1  CN=C(NS(=O)(=O)N1CCC(F)(F)CC1)N1CC(c2ccccc2)C(c2ccc(Cl)cc2)=N1 (configuration not stated)          Ki           nM        12.2
2  CN/C(=N\S(=O)(=O)c1ccc(Cl)cc1)N1CCC(c2ccccc2)C(c2ccc(Cl)cc2)=N1 (configuration not stated)          Ki           nM          43

* * *

Values of pKi reported for Cannabinoid receptor 2 (Homo sapiens, UniProt P34972) appear below.
pKi: −log10 of the molar value.
value_type: pKi

> print(dat)
                                   molecule  value.type  data.value
1  CNC(=NS(=O)(=O)N1CCC(F)(F)CC1)N1CCC(c2ccccc2)C(c2ccc(Cl)cc2)=N1 (configuration not stated)         pKi        6.61
2  CN/C(=N\S(=O)(=O)c1ccc(Cl)cc1)N1CCC(c2ccccc2)C(c2ccc(Cl)cc2)=N1 (configuration not stated)         pKi        6.50
